Molecular target: UniProtKB P35372
Sequence (P35372 whole entry): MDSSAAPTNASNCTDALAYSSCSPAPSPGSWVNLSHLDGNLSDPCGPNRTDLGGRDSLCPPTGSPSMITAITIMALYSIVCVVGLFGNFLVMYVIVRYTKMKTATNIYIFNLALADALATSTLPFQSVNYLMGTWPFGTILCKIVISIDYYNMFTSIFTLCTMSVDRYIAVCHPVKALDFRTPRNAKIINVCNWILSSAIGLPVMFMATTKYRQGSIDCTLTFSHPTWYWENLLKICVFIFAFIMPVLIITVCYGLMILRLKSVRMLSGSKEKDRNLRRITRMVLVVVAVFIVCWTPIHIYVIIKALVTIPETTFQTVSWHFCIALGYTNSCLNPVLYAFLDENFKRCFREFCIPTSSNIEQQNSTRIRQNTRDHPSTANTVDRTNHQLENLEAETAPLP
Assay: Antagonist activity at mu opioid receptor (unknown origin) expressed in membranes assessed as inhibition of DAMGO1-induced GTP-gamma-[35S] binding after 4 hrs by micro beta scintillation counting analysis
Measured Kb accompanies every entry in the list below.
# output: bare number, implied unit nM

Some molecules with recorded Kb:
### Prompt If you can, please state the reported Kb value of Cc1ccccc1CNCCc1ccc(Oc2ccc(C(N)=O)cn2)c(Cl)c1 .
### Response 0.281

### Prompt Please give the measured Kb for this molecule: NC(=O)c1ccc(Oc2ccc(CCNCc3ccccc3)cc2Cl)nc1
### Response 0.843

### Prompt Which Kb is listed for NC(=O)c1ccc(Oc2ccc(CNCCc3cccs3)cc2)nc1 ?
### Response 0.068

### Prompt Can you look up the measured Kb of NC(=O)c1ccc(Oc2ccc(CCNCc3cccc(F)c3)cc2Cl)nc1 for me?
### Response 0.41

### Prompt # query: Kb of entry NC(=O)c1ccc(Oc2ccc(CCNCc3cccc(Cl)c3)cc2Cl)nc1
### Response 0.503

Continuing:
### Prompt Which Kb is reported for this molecule? NC(=O)c1ccc(Oc2ccc(CNCCc3cccc(F)c3)cc2)nc1
### Response 0.072

### Prompt Which Kb value belongs to CC(C)CCNCc1ccc(Oc2ccc(C(N)=O)cn2)cc1 ?
### Response 0.2
